System: NCI-H929 complex spheroids, viability % test/control
Assay: Anticancer human tumor NCI-H929 cell line growth inhibition [RAS];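 further: compound exposure lasted seven days before viability was read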
Conditions: curve of first compound; second compound 0.03 µM
pIC50: −log10 of the molar value.
quantity: pIC50

compound: CC(Nc1ccc2c(c1)OCCn1cc(N3C(=O)OCC3C(F)F)nc1-2)C(N)=O (configuration not stated) + CCn1c(-c2cccnc2C(C)OC)c2c3cc(ccc31)N1CCOC(CC(NC(=O)C(C(C)C)N(C)C(=O)C3(F)CCN(C(=O)C#CC(C)(C)N(C)C)CC3)C(=O)N3CCCC(N3)C(=O)OCC(C)(C)C2)C1
sign: =
observed_measurement: 5.22
//
compound: C[C@@H](NC(=O)c1ncnc(N)c1Cl)c1ncc(C(=O)Nc2cc(C(F)(F)F)c(Cl)cn2)s1 + CCn1c(-c2cccnc2C(C)OC)c2c3cc(ccc31)N1CCOC(CC(NC(=O)C(C(C)C)N(C)C(=O)C3(F)CCN(C(=O)C#CC(C)(C)N(C)C)CC3)C(=O)N3CCCC(N3)C(=O)OCC(C)(C)C2)C1
sign: <
observed_measurement: 5.00

###

Test system: NCI-H929 complex spheroids, viability % test/control
Assay: Anticancer human tumor NCI-H929 cell line growth inhibition [RAS];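 further: compound exposure lasted seven days before viability was read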;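 on viability, T/C: 100% = DMSO vehicle control viability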
Conditions: second compound 0.00949 µM; first compound 0.00316 µM; stronger effect = lower value
In this section we review reported viability, T/C values for a set of molecules.

molecule: CC(C)n1nc(-c2ccc3oc(N)nc3c2)c2c(N)ncnc21 + CCn1c(-c2cccnc2C(C)OC)c2c3cc(ccc31)N1CCOC(CC(NC(=O)C(C(C)C)N(C)C(=O)C3(F)CCN(C(=O)C#CC(C)(C)N(C)C)CC3)C(=O)N3CCCC(N3)C(=O)OCC(C)(C)C2)C1
viability, T/C / %: 106
//
molecule: Nc1ccn(C2OC(CO)C(O)C2(F)F)c(=O)n1 (stereo unspecified) + CCn1c(-c2cc(N3CCN(C)CC3)cnc2C(C)OC)c2c3cc(ccc31)-c1csc(n1)CC(NC(=O)C1CC1C)C(=O)N1CCCC(N1)C(=O)OCC(C)(C)C2
viability, T/C / %: 127
//
molecule: CCN1CCN(Cc2ccc(Nc3ncc(F)c(-c4cc(F)c5nc(C)n(C(C)C)c5c4)n3)nc2)CC1 + CCn1c(-c2cccnc2C(C)OC)c2c3cc(ccc31)N1CCOC(CC(NC(=O)C(C(C)C)N(C)C(=O)C3(F)CCN(C(=O)C#CC(C)(C)N(C)C)CC3)C(=O)N3CCCC(N3)C(=O)OCC(C)(C)C2)C1
viability, T/C / %: 96.8
//
molecule: C=CC(=O)Nc1cc(Nc2nccc(-c3cn(C)c4ccccc34)n2)c(OC)cc1N(C)CCN(C)C + CCn1c(-c2cc(N3CCN(C)CC3)cnc2C(C)OC)c2c3cc(ccc31)-c1csc(n1)CC(NC(=O)C1CC1C)C(=O)N1CCCC(N1)C(=O)OCC(C)(C)C2
viability, T/C / %: 108
//
molecule: CCN1CCN(Cc2ccc(Nc3ncc(F)c(-c4cc(F)c5nc(C)n(C(C)C)c5c4)n3)nc2)CC1 + CCn1c(-c2cc(N3CCN(C)CC3)cnc2C(C)OC)c2c3cc(ccc31)-c1csc(n1)CC(NC(=O)C1CC1C)C(=O)N1CCCC(N1)C(=O)OCC(C)(C)C2
viability, T/C / %: 109
//
molecule: C=CC(=O)N1CCN(c2nc(OCC3CCCN3C)nc3c(F)c(-c4nc(N)cc(C)c4C(F)(F)F)c(Cl)cc23)C(C)C1 (stereo unspecified) + CCn1c(-c2cccnc2C(C)OC)c2c3cc(ccc31)N1CCOC(CC(NC(=O)C(C(C)C)N(C)C(=O)C3(F)CCN(C(=O)C#CC(C)(C)N(C)C)CC3)C(=O)N3CCCC(N3)C(=O)OCC(C)(C)C2)C1
viability, T/C / %: 104

###

System: NCI-H929 complex spheroids, viability % test/control
Assay: Anticancer human tumor NCI-H929 cell line growth inhibition [RAS]; active = viability on the fitted dose curve at most 10% of control; inactive = the rest;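 further: compound exposure lasted seven days before viability was read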
Conditions: compound 1 µM
Labels: active, inactive

molecule: C=CC(=O)N1CCN(c2nc(OCC3CCCN3C)nc3c(F)c(-c4nc(N)cc(C)c4C(F)(F)F)c(Cl)cc23)C(C)C1 (stereo not given)
group_label: inactive
--
molecule: CC1(O)CCCC1n1c(=O)c(C(F)F)cc2cnc(NC3CCN(S(C)(=O)=O)CC3)nc21 (stereo not given)
group_label: active
--
molecule: C#Cc1c(F)ccc2cc(O)cc(-c3ncc4c(N5CC6CCC(C5)N6)nc(OCC56CCCN5CC(F)C6)nc4c3F)c12 (stereo not given)
group_label: inactive
--
molecule: C[C@@H](NC(=O)c1ncnc(N)c1Cl)c1ncc(C(=O)Nc2cc(C(F)(F)F)c(Cl)cn2)s1
group_label: inactive
--
molecule: C=CC(=O)Nc1cc(Nc2nccc(-c3cn(C)c4ccccc34)n2)c(OC)cc1N(C)CCN(C)C
group_label: inactive
--
molecule: NC1c2ccccc2OC12CCN(c1cnc3c(N4CCCc5ncccc54)n[nH]c3n1)CC2 (stereo not given)
group_label: inactive
--
molecule: CC(=O)OC12COC1CC(O)C1(C)C(=O)C(O)C3=C(C)C(OC(=O)C(O)C(NC(=O)OC(C)(C)C)c4ccccc4)CC(O)(C(OC(=O)c4ccccc4)C21)C3(C)C (stereo not given)
group_label: active
--
molecule: Nc1ccn(C2OC(CO)C(O)C2(F)F)c(=O)n1 (stereo not given)
group_label: active
--
molecule: CC(Nc1ccc2c(c1)OCCn1cc(N3C(=O)OCC3C(F)F)nc1-2)C(N)=O (stereo not given)
group_label: inactive
--
molecule: Cc1nc(N2CCC3(CC2)COC(C)C3N)c(CO)nc1Sc1ccnc(N)c1Cl (stereo not given)
group_label: inactive

###

Tested on: NCI-H929 complex spheroids, viability % test/control
Assay: Anticancer human tumor NCI-H929 cell line growth inhibition [RAS];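 further: compound exposure lasted seven days before viability was read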;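 on viability, T/C: 100% = DMSO vehicle control viability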
Conditions: second compound 0.00949 µM; first compound 0.0316 µM; stronger effect = lower value
In this section we review reported viability, T/C values for a set of molecules.

molecule: CC(C)n1nc(-c2ccc3oc(N)nc3c2)c2c(N)ncnc21 + CCn1c(-c2cccnc2C(C)OC)c2c3cc(ccc31)N1CCOC(CC(NC(=O)C(C(C)C)N(C)C(=O)C3(F)CCN(C(=O)C#CC(C)(C)N(C)C)CC3)C(=O)N3CCCC(N3)C(=O)OCC(C)(C)C2)C1
viability, T/C [%]: 61.4
//
molecule: Cc1nc(N2CCC3(CC2)COC(C)C3N)c(CO)nc1Sc1ccnc(N)c1Cl (centres undefined) + CCn1c(-c2cc(N3CCN(C)CC3)cnc2C(C)OC)c2c3cc(ccc31)-c1csc(n1)CC(NC(=O)C1CC1C)C(=O)N1CCCC(N1)C(=O)OCC(C)(C)C2
viability, T/C [%]: 118
//
molecule: Nc1ccn(C2OC(CO)C(O)C2(F)F)c(=O)n1 (centres undefined) + CCn1c(-c2cc(N3CCN(C)CC3)cnc2C(C)OC)c2c3cc(ccc31)-c1csc(n1)CC(NC(=O)C1CC1C)C(=O)N1CCCC(N1)C(=O)OCC(C)(C)C2
viability, T/C [%]: 1.99
//
molecule: CCC(CC)c1cc(NC2CCC(N)C2)n2nccc2n1 (centres undefined) + CCn1c(-c2cc(N3CCN(C)CC3)cnc2C(C)OC)c2c3cc(ccc31)-c1csc(n1)CC(NC(=O)C1CC1C)C(=O)N1CCCC(N1)C(=O)OCC(C)(C)C2
viability, T/C [%]: 114

###

In this section we review reported IC50 values for a set of compounds.
Test system: NCI-H929 complex spheroids, viability % test/control
Assay: Anticancer human tumor NCI-H929 cell line growth inhibition [RAS];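 further: compound exposure lasted seven days before viability was read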
Conditions: curve of first compound; second compound 0.03 µM

compound: CC(C)NCC(C(=O)N1CCN(c2ncnc3c2C(C)CC3O)CC1)c1ccc(Cl)cc1 (configuration not stated) + CCn1c(-c2cc(N3CCN(C)CC3)cnc2C(C)OC)c2c3cc(ccc31)-c1csc(n1)CC(NC(=O)C1CC1C)C(=O)N1CCCC(N1)C(=O)OCC(C)(C)C2
system: NCI-H929 complex spheroids, viability % test/control
IC50: < 0.0316 µM
//
compound: CC1(C)CCC(Nc2ncc(C(F)(F)F)c(-c3c[nH]c4c(P(C)(C)=O)c(C#N)ccc34)n2)CN1 (configuration not stated) + CCn1c(-c2cc(N3CCN(C)CC3)cnc2C(C)OC)c2c3cc(ccc31)-c1csc(n1)CC(NC(=O)C1CC1C)C(=O)N1CCCC(N1)C(=O)OCC(C)(C)C2
system: NCI-H929 complex spheroids, viability % test/control
IC50: < 0.000949 µM

###

System: NCI-H929 complex spheroids, viability % test/control
Assay: Anticancer human tumor NCI-H929 cell line growth inhibition [RAS]; active means viability on the fitted dose curve at most 10% of control; inactive means the rest;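 further: compound exposure lasted seven days before viability was read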
Conditions: second compound 0.1 µM; first compound 0.0316 µM
Labels: TRUE (active), FALSE (inactive)

compound: C=CC(=O)N1CCN(c2nc(OCC3CCCN3C)nc3c(F)c(-c4nc(N)cc(C)c4C(F)(F)F)c(Cl)cc23)C(C)C1 (centres undefined) + C#Cc1c(F)ccc2cc(O)cc(-c3ncc4c(N5CC6CCC(C5)N6)nc(OCC56CCCN5CC(F)C6)nc4c3F)c12
group_label: FALSE

compound: CC(=O)OC12COC1CC(O)C1(C)C(=O)C(O)C3=C(C)C(OC(=O)C(O)C(NC(=O)OC(C)(C)C)c4ccccc4)CC(O)(C(OC(=O)c4ccccc4)C21)C3(C)C (centres undefined) + C=CC(=O)N1CCN(c2nc(OCC3CCCN3C)nc3c(F)c(-c4nc(N)cc(C)c4C(F)(F)F)c(Cl)cc23)C(C)C1
group_label: TRUE

compound: C[C@@H](NC(=O)c1ncnc(N)c1Cl)c1ncc(C(=O)Nc2cc(C(F)(F)F)c(Cl)cn2)s1 + C#Cc1c(F)ccc2cc(O)cc(-c3ncc4c(N5CC6CCC(C5)N6)nc(OCC56CCCN5CC(F)C6)nc4c3F)c12
group_label: FALSE

compound: CC1(O)CCCC1n1c(=O)c(C(F)F)cc2cnc(NC3CCN(S(C)(=O)=O)CC3)nc21 (centres undefined) + C=CC(=O)N1CCN(c2nc(OCC3CCCN3C)nc3c(F)c(-c4nc(N)cc(C)c4C(F)(F)F)c(Cl)cc23)C(C)C1
group_label: FALSE

compound: CC(C)n1nc(-c2ccc3oc(N)nc3c2)c2c(N)ncnc21 + C=CC(=O)N1CCN(c2nc(OCC3CCCN3C)nc3c(F)c(-c4nc(N)cc(C)c4C(F)(F)F)c(Cl)cc23)C(C)C1
group_label: FALSE

compound: C[C@@H](NC(=O)c1ncnc(N)c1Cl)c1ncc(C(=O)Nc2cc(C(F)(F)F)c(Cl)cn2)s1 + C=CC(=O)N1CCN(c2nc(OCC3CCCN3C)nc3c(F)c(-c4nc(N)cc(C)c4C(F)(F)F)c(Cl)cc23)C(C)C1
group_label: FALSE

compound: O=C(c1ccc(F)c(F)c1Nc1ccc(I)cc1F)N1CC(O)([C@@H]2CCCCN2)C1 + C=CC(=O)N1CCN(c2nc(OCC3CCCN3C)nc3c(F)c(-c4nc(N)cc(C)c4C(F)(F)F)c(Cl)cc23)C(C)C1
group_label: FALSE

compound: CC1(O)CCCC1n1c(=O)c(C(F)F)cc2cnc(NC3CCN(S(C)(=O)=O)CC3)nc21 (centres undefined) + C#Cc1c(F)ccc2cc(O)cc(-c3ncc4c(N5CC6CCC(C5)N6)nc(OCC56CCCN5CC(F)C6)nc4c3F)c12
group_label: FALSE

compound: C=CC(=O)Nc1cc(Nc2nccc(-c3cn(C)c4ccccc34)n2)c(OC)cc1N(C)CCN(C)C + C=CC(=O)N1CCN(c2nc(OCC3CCCN3C)nc3c(F)c(-c4nc(N)cc(C)c4C(F)(F)F)c(Cl)cc23)C(C)C1
group_label: FALSE

compound: CC(C)n1nc(-c2ccc3oc(N)nc3c2)c2c(N)ncnc21 + C#Cc1c(F)ccc2cc(O)cc(-c3ncc4c(N5CC6CCC(C5)N6)nc(OCC56CCCN5CC(F)C6)nc4c3F)c12
group_label: FALSE

compound: NC1c2ccccc2OC12CCN(c1cnc3c(N4CCCc5ncccc54)n[nH]c3n1)CC2 (centres undefined) + C#Cc1c(F)ccc2cc(O)cc(-c3ncc4c(N5CC6CCC(C5)N6)nc(OCC56CCCN5CC(F)C6)nc4c3F)c12
group_label: FALSE

compound: NC1c2ccccc2OC12CCN(c1cnc3c(N4CCCc5ncccc54)n[nH]c3n1)CC2 (centres undefined) + C=CC(=O)N1CCN(c2nc(OCC3CCCN3C)nc3c(F)c(-c4nc(N)cc(C)c4C(F)(F)F)c(Cl)cc23)C(C)C1
group_label: FALSE

compound: CCN1CCN(Cc2ccc(Nc3ncc(F)c(-c4cc(F)c5nc(C)n(C(C)C)c5c4)n3)nc2)CC1 + C#Cc1c(F)ccc2cc(O)cc(-c3ncc4c(N5CC6CCC(C5)N6)nc(OCC56CCCN5CC(F)C6)nc4c3F)c12
group_label: FALSE

compound: Nc1ccn(C2OC(CO)C(O)C2(F)F)c(=O)n1 (centres undefined) + C#Cc1c(F)ccc2cc(O)cc(-c3ncc4c(N5CC6CCC(C5)N6)nc(OCC56CCCN5CC(F)C6)nc4c3F)c12
group_label: TRUE

compound: Cc1nc(N2CCC3(CC2)COC(C)C3N)c(CO)nc1Sc1ccnc(N)c1Cl (centres undefined) + C#Cc1c(F)ccc2cc(O)cc(-c3ncc4c(N5CC6CCC(C5)N6)nc(OCC56CCCN5CC(F)C6)nc4c3F)c12
group_label: FALSE

compound: CCN1CCN(Cc2ccc(Nc3ncc(F)c(-c4cc(F)c5nc(C)n(C(C)C)c5c4)n3)nc2)CC1 + C=CC(=O)N1CCN(c2nc(OCC3CCCN3C)nc3c(F)c(-c4nc(N)cc(C)c4C(F)(F)F)c(Cl)cc23)C(C)C1
group_label: FALSE

compound: CC(C)NCC(C(=O)N1CCN(c2ncnc3c2C(C)CC3O)CC1)c1ccc(Cl)cc1 (centres undefined) + C=CC(=O)N1CCN(c2nc(OCC3CCCN3C)nc3c(F)c(-c4nc(N)cc(C)c4C(F)(F)F)c(Cl)cc23)C(C)C1
group_label: FALSE

compound: CC(C)NCC(C(=O)N1CCN(c2ncnc3c2C(C)CC3O)CC1)c1ccc(Cl)cc1 (centres undefined) + C#Cc1c(F)ccc2cc(O)cc(-c3ncc4c(N5CC6CCC(C5)N6)nc(OCC56CCCN5CC(F)C6)nc4c3F)c12
group_label: FALSE

compound: Cc1nc(N2CCC3(CC2)COC(C)C3N)c(CO)nc1Sc1ccnc(N)c1Cl (centres undefined) + C=CC(=O)N1CCN(c2nc(OCC3CCCN3C)nc3c(F)c(-c4nc(N)cc(C)c4C(F)(F)F)c(Cl)cc23)C(C)C1
group_label: FALSE

Attribution: PubChem BioAssay AID2060884
